system: EKVX NSCLC; experiment: NCI tumour cell line growth inhibition, 48 h
I'd appreciate it if you could supply TGI values for the items below.

So, "COc1ccc(N=Nc2c3c(c(O)c4ccccc24)CCC(C)(C)O3)cc1" ? Its TGI was 54.1 µM

So, "Cc1ncc([N+](=O)[O-])n1CCNS(=O)(=O)CCCn1ncnc1[N+](=O)[O-]" ? Its TGI was > 100 µM

So, "CC1=C(c2cc(C(=O)Nc3ccc(Cl)cc3)nc(=S)[nH]2)Sc2ccccc2N1" ? Its TGI was > 100 µM

So, CCN1C(=O)N(CC)C2Nn3c(s/c(=C4\C(=O)N(C)c5ccccc54)c3=O)=NC21 (configuration not stated) ? Its TGI was > 100 µM

So, Nc1ccccc1SC1CC(=O)N(c2ccc(Cl)c(Cl)c2)C1=O (configuration not stated) ? Its TGI was > 100 µM

So, "C=C(C)[C@@]1(O[Si](C)(C)C)CCCC[C@@H]1CC(Sc1ccccc1)Sc1ccccc1" ? Its TGI was 32.1 µM

So, "COc1ccc(/C=C(/c2ccccc2)[N+](=O)[O-])cc1" ? Its TGI was 3.52 µM

So, Nc1nc(N)c2cc(CNc3ccc(C(=O)NC(CC(=O)O)C(=O)O)c(Cl)c3)ccc2n1 (configuration not stated) ? Its TGI was > 500 µM

So, COc1c(O)c(O)cc2c1-c1ccc(OC)c(=O)cc1C(NC(C)=O)CC2 (configuration not stated) ? Its TGI was 98.2 µM

So, "COc1ccc(Cc2cnc(NC(=O)c3ccc4c(c3)OCCO4)s2)cc1" ? Its TGI was > 100 µM

So, "CCC(=O)Nc1ccc(N=NN(C)C)cc1" ? Its TGI was > 100 µM

So, "O=C([CH-]C(=O)c1ccccc1)c1ccccc1.O=C([CH-]C(=O)c1ccccc1)c1ccccc1.[O]=[U+2]=[O]" ? Its TGI was > 100 µM

So, C=CCN1CC2CON(C(=O)C(OC)(c3ccccc3)C(F)(F)F)C2C1C(C)C (configuration not stated) ? Its TGI was 99.1 µg/mL

So, "CC1=C[C@@H](C)C[C@]2(C)CC[C@H](O2)[C@]23CC[C@](C(=O)O)(C[C@H](O2)[C@@H]2O[C@@](C)(CC2=O)[C@@H](O)[C@H]2CC[C@@]4(CCC[C@@H](O4)[C@H](C)C(=O)O[C@H]4C[C@H]([C@]5(O)OCC[C@H](C)[C@@H]5O)O[C@H]4C=C1)O2)O3" ? Its TGI was > 10 µM

So, "CC/C=C/C/C=C/C/C=C/C/C=C/C/C=C/C/C=C/CCC(=O)Nc1ccn([C@@H]2O[C@H](CO)[C@@H](O)C2(F)F)c(=O)n1" ? Its TGI was > 58.9 µM

So, "Clc1ccc(Cl)c(SCCCN2CCNCC2)c1" ? Its TGI was 34.7 µM

So, "NS(=O)(=O)c1ccc(NC(NC(=O)C(C(F)(F)F)C(F)(F)F)(C(F)(F)F)C(F)(F)F)cc1" ? Its TGI was > 100 µM

So, COC(C(=O)[C@@H](O)[C@@H](C)O)[C@@H]1Cc2cc3cc(O[C@H]4C[C@@H](O[C@H]5C[C@@H](O)[C@H](O)C(C)O5)[C@H](O)C(C)O4)c(C)c(O)c3c(O)c2C(=O)[C@H]1O[C@H]1C[C@@H](O[C@H]2C[C@@H](O[C@H]3C[C@@H](O)[C@H](OC)C(C)O3)[C@@H](O)C(C)O2)[C@H](O)C(C)O1 (some centres not stated) ? Its TGI was > 33.3 µM

So, N#CC(C(=O)CCC(=O)Nc1cccc(C(F)(F)F)c1)c1ccc(Cl)cc1 (configuration not stated) ? Its TGI was > 100 µM

So, COCOc1ccc(C2(O)Oc3cc(OCOC)ccc3C2C)c(O)c1 (configuration not stated) ? Its TGI was 28.2 µM

So, "CC(C)(C)OC(=O)n1c(-c2ccccc2F)cc(=O)c2cc3c(cc21)OCO3" ? Its TGI was > 100 µM

So, "CO/N=C(/C)c1cccc(Nc2cc(-c3ccccc3)nc3ccc(OC)cc23)c1" ? Its TGI was 30.3 µM

So, "NC(=S)N/N=C/c1cc(-c2cccc(N)c2)ccn1" ? Its TGI was > 100 µM

So, "CCOC(=O)C1(C(=O)OCC)CCCN1C(=O)[C@H](CNC(=O)OC(C)(C)C)NC(=O)OCc1ccccc1" ? Its TGI was > 100 µM

So, C=C1C(=O)OC2/C=C(/C)C3(O)OC(C)(CC(OC(=O)C(C)C)C12)CC3OC(C)=O (configuration not stated) ? Its TGI was 46.5 µM

So, "Nc1ccc2nc3n(c2c1)C(=O)c1ccccc1-3" ? Its TGI was > 100 µM

So, "O=S1(=O)OCCOS(=O)(=O)C1Cl" ? Its TGI was > 100 µM

So, "O=C(CSC(c1ccccc1)c1ccccc1)N/N=C/c1ccco1" ? Its TGI was > 5.19 µM

So, "Clc1cc(Cl)cc(Nc2ccc3cc(OCCCN4CCOCC4)ccc3n2)c1" ? Its TGI was > 100 µM

So, "COC(=O)C1(Cc2ccc3c(c2)CCC3)Cc2cc3c(cc2C1)CCC3" ? Its TGI was > 100 µM

So, COC(=O)c1cc2c(cc1CC(Cc1ccc3c(c1)CCC3)C(=O)OC)CCC2 (configuration not stated) ? Its TGI was > 100 µM

So, "COc1ccc2c(c1)CCN=C2c1ccccc1CCCCl" ? Its TGI was > 100 µM
